test: folding stability dG unfold from trypsin proteolysis; higher = more stable
Listed sequences paired with reported folding stability dG unfold
quantityName: folding stability dG unfold (kcal/mol)

>>> numericreadout("SAGGSAGGSAGGGSTTTTTETYPENGLIFTTTTTVFDDGSLSVTTTTSPLPLPPSPFIATSAGGSAGGSAGG [r7_103_JUSTAS]")
1.29
>>> numericreadout("SAGGAVEVKEIKILPPVLDPEGDPSNPLLRVEITTKITENTPEGKKILEKTKTYLVSPENLEEVLKKLSAGG [r13_149_JUSTAS]")
2.05
>>> numericreadout("SETYKVTVLAEVRIYSRSPDGTWKPIGVFPVEATVEYPAEYREEAERKAVEKVEEEVRKFAESHGVVVEASA [r9_356_TrMRF]")
1.57
>>> numericreadout("SAGMTITLDGVEITVERVRDEETGEWYYRVTVTVTTEDGEKVTITVTVPEGMTPEQVEALARELAEALASAG [r5_704_TrROS_Hall]")
5.12
>>> numericreadout("SAGGSIEEVIEELIKSGKPPSKEEIKEAIKKAIEEEVKKKGKKIPKVNIKKITSNPETGKIPIEIIISAGGS [r16_365_JUSTAS]")
-0.757
>>> numericreadout("SVIKLPIWYPNSPAEQAEEMVQSLARKFMDKYGLKIDVEVETRRDPDGKPRWVRIEATIQYRDEDGKPIFSA [r9_21_TrROS]")
1.81
>>> numericreadout("SAGGSAGGSKTVTLTLTLPGKKITFTLTEDGTVRMTVYNEKTGEKVKEITVPAKNLEELLKALSAGGSAGGS [r20_129_TrROS_Hall]")
3.02

---

Listed sequences paired with reported folding stability dG unfold
test: folding stability dG unfold from trypsin proteolysis; higher = more stable
quantityName: folding stability dG unfold (kcal/mol)

>>> numericreadout("SAGGMSALRIVAENLPEDARVVLPDGRVFPPGVELELPLEADLDVVVALDEDGRVHHVERVPLDRPLLSAGG [r13_441_TrMRF]")
-0.352
>>> numericreadout("SAGGSAGGSAGGGSMTTTTLTFTVPPDVTPEEVRAALEAAGYGDVAVTREGNTWTVTVTSAGGSAGGSAGGS [r10_868_JUSTAS]")
1.56
>>> numericreadout("SAGGSMPKGQEVKIEIEHRRHNGRRYWRVSVEVPNGKDIEIPFDDPEEMPPEMKKQIENLAKEIVKSAGGSA [r2_17_TrROS]")
0.146
>>> numericreadout("SAGVVVRPGEPVPFYVVRVETELRTRPRPDGSEVTTVETRVEVRPYTVTVGPVPVVEVPPDATDPADAASAG [r5_770_TrMRF]")
2.09

---

Listed sequences paired with reported folding stability dG unfold
experiment: folding stability dG unfold from chymotrypsin proteolysis; higher = more stable
quantityName: folding stability dG unfold (kcal/mol)

>>> numericreadout("SAMYEPAEFSFTLPNGEKIHITAPKNPNTDEPIVSITIYRKLPDGNTVSFTITVKSSDIDEIIEKLGIKSAG [r14_416_TrMRF]")
3.74
>>> numericreadout("SAGGSAGGSAMVTIAFPDGTVVEIPASLSEEEVEAEAERLAKERAAGVRPVDVTVESIEPPGSAGGSAGGSA [r18_213_JUSTAS]")
1.43
>>> numericreadout("SAGGSAGGSAGGMPLVRIEVTNENGEKFTFIFESEEEAKAAAEALGVDVKIEKIPPGEEISAGGSAGGSAGG [r7_456_TrROS_Hall]")
3.25
>>> numericreadout("SAGGSAGGSAGGSMLTVRSSSTTPLPDGSTVTTYEVNDKPYLVRVDPNGPVVTVKPLSLLSAGGSAGGSAGG [r7_772_JUSTAS]")
-0.367

---

assay: folding stability dG unfold (combined trypsin and chymotrypsin); higher = more stable
quantityName: folding stability dG unfold (kcal/mol)

>>> numericreadout("SAGSSTTLTFPVDTKIPDEKGNPLSSSTVTVTVNPSPGKVTATLTDPATGTVTTVEFGSLEKVEAFLSSSAG [r14_508_JUSTAS]")
0.809
>>> numericreadout("RKIEINIWRNENHWYVRIKLEHPDGKEQELMFPMDSWDEAREFIRGILANLPPNNVKIEDIEIYPPNGQPIS [r1_169_TrROS]")
3.87
>>> numericreadout("SAMIVVEIEESRSPTSPERTVTVTVKKPDGTVVKTIPITVSGANPSATPEEVRALAEPIVEELVKKGLLSAG [r14_120_JUSTAS]")
1.55
>>> numericreadout("SAGGSAGGSAGSTVTLELEIDGVRITVKAELTPDGELRLTITEVEVLPPPPVVHPDDPEALKSAGGSAGGSA [r18_176_TrROS_Hall]")
1.33
>>> numericreadout("SAGGSAGGSAGLNITYTTTITYPDGTVVTEPVVSSGSLEEAIARARELEKKHPNVEVEVSPEGSAGGSAGGS [r12_268_JUSTAS]")
-0.113

---

test: folding stability dG unfold (combined trypsin and chymotrypsin); higher = more stable
Listed sequences paired with reported folding stability dG unfold
quantityName: folding stability dG unfold (kcal/mol)

>>> numericreadout("SAGGSAGGSATIRIPWDKIKDALEEHDMTVTNIEPNPGGNPWVEIEVNGTPEQREKIQEALKSAGGSAGGSA [r18_175_TrROS]")
0.313
>>> numericreadout("SAKIPAEEIAEEIAENFGFEPVEVDEIDPDEGKIIIRFPGWQIEVEVDPEDGEIEIEMEFYDPEDGKPFSAG [r14_270_TrROS]")
-0.0386
>>> numericreadout("SAGGSAGGSAGMVFLDPETRLLLVVHPNGEPELVLLEDGRAVLFHPSTGERREIPLAEIGSAGGSAGGSAGG [r11_297_TrMRF]")
0.263
>>> numericreadout("SAGGSAGGSAGGELKAKFETFPSPYGKVILAEAEFEEPNLLAAIVIDEDGVPHLLVVSPDSAGGSAGGSAGG [r7_187_TrMRF]")
0.952

---

experiment: folding stability dG unfold from trypsin proteolysis; higher = more stable
quantityName: folding stability dG unfold (kcal/mol)

>>> numericreadout("SAGMDFPESYTPIASNGKTLVFKSPTEVYIVLYSPEGGSEVRSFTPGDESVLNPFLEELKKSDYVNLNISAG [r14_12_JUSTAS]")
0.695
>>> numericreadout("SAGGSAGGSAGGSMPVEILEVEEADPETGIRTYKLRDPVIGVESTIEGPLSPEEIEALLSAGGSAGGSAGGS [r4_228_JUSTAS]")
-0.808
>>> numericreadout("SAGGSAGGSAGGTIRDAVKEGKPFKIRMRGKKGKTHTVTIRPDKPVKLPGISSIQVERDSAGGSAGGSAGGS [r10_700_TrROS]")
-0.285
>>> numericreadout("SAGGLEIEVFNEKGEPVEVRLRRKEDDTLELEVRFRDASGREYRARATVRVKETEIELGEVDEWEELESAGG [r13_451_TrMRF]")
2.19

---

experiment: folding stability dG unfold from trypsin proteolysis; higher = more stable
quantityName: folding stability dG unfold (kcal/mol)

>>> numericreadout("SAGEKKEKEKEKKKEEEEKKKKEEEKKKEEEKKKEKTLKLEFTLPDGSKIEIEMTVEELKKLGLSPEELSAG [r5_12_TrROS_Hall]")
0.836
>>> numericreadout("SAGGMIVLEFPDGKIVFVEPVSEFTTPDGKKVRLVKVIVTDPLTGKSTIIEREVLPGGGVKEKVTPESAGGS [r16_651_JUSTAS]")
1.89
>>> numericreadout("SAMTLRIELTKEELEKLIKELKPGDEVELEIEVNGRTYRIRAKITRIERVDDKVYIEVELEIEELPEEESAG [r14_335_TrROS_Hall]")
4.46
>>> numericreadout("SAGTLTLELEVEVDGVLVRVRVEVRPGEEVEVRVEVEVRELPPEPEVEEEEKVELSEEDLERLRRLAEESAG [r5_958_TrROS_Hall]")
2.46
>>> numericreadout("SMKKILIIVPKEMSEEEVEALVKELLEKLGLPEGAEVEILTEEELEKNPELKKKLEEAEKKGADLVIIIPSA [r9_1147_TrROS_Hall]")
3.39
>>> numericreadout("SAGGSAGGSFFIRVEYPKGKTRTYPIKNGPIEEALEQLPPGWDNVKVSIYNGNKPVEFEIPLPSAGGSAGGS [r12_767_TrROS]")
0.389
>>> numericreadout("SAGGSAGGSAGGNITVTEDGWIVIEIPYYSPDGGPSPITIVIPIPKMPPEEAEELADKGSAGGSAGGSAGGS [r10_1096_TrROS]")
1.13
>>> numericreadout("SAGSAEELKEKIREELRERLAKELGYPNIEIKKVEVLKYDPETGTITVKVELKLPDGKELTLTITVPVKSAG [r5_20_JUSTAS]")
4.27
>>> numericreadout("SAGGSAGGKPTYYVAEVTYPGNLKATVVVEDKDNLTFVIPDTGEVWDLTDLDDIKITPVSADDPSAGGSAGG [r6_222_TrMRF]")
0.633
>>> numericreadout("SAGGSAGGPLVVGRGTFPDGFTADAELRVPDSSETFYRTIEPGASLDEIPENYEVANITLSPAGSAGGSAGG [r6_758_TrMRF]")
-0.289
>>> numericreadout("SAGGSAGGSAGMEPEIYTITTTDSNGNTSSYTFTSTEEVNAFLNDPSFQSSAVSFTVSPTSAGGSAGGSAGG [r11_1047_JUSTAS]")
2.57
>>> numericreadout("MNLSDPVSVAKLKKALEEIKKAIEELKKKGKKIEILAIELNDDSIKITPVTKSEEYIKKKKEEGIEIILLLS [r1_134_JUSTAS]")
1.52
>>> numericreadout("SAEVEIEVVEKDGKLYLVIRVRFPPGLKPGDKVTLTLTLPNGAKVTITRDKDGTRYITIVVELKDLEKLSAG [r14_754_TrROS_Hall]")
3.94
>>> numericreadout("SAGGSAGGSPAPDVTIEVKVTYDPETGALRIEVEATIPGGGKITIEYTIPPLDKIEIVGVKIESAGGSAGGS [r12_1029_TrMRF]")
2.63
>>> numericreadout("SMTRVKVELLITNPATGETFYYDIEATEEEAEEIAKELEESYPEKNATVTIKKKEVIPVEPPVVLPEGILSA [r9_14_JUSTAS]")
0.418
>>> numericreadout("SAGGSAGGKPKKVKIKIEITYNKETGVVKIKIEVEVDGKTYTIEIEVKLKPGQTIEELLKKLLESAGGSAGG [r6_20_TrROS_Hall]")
2.84
>>> numericreadout("SAGGSAGGSASSLEESLRAELPEGKPARIEVKVELEKTPNGKLKVKEVKVTVTLPNGPVVGSAGGSAGGSAG [r3_247_JUSTAS]")
0.572
>>> numericreadout("SAGGMPAKAVTTKLPDGTDRITVTTVGSGKSATIPVPAGELKVIEIEEGEETLSVSFVEVGPDNPELGSAGG [r13_122_TrMRF]")
-0.426
>>> numericreadout("SAGGSAGGSAGGSMSGVFSTETVFLEKTLPDGSRVEALTTIETYLPLPPLPPFKFPSAVSAGGSAGGSAGGS [r4_325_JUSTAS]")
0.13
>>> numericreadout("SMKVKPGEKIKVTVLALFYDKETKKLYLVKAEVEATVELDEDGNLTVKVEVKKVEVVEEMPLDELKELLKSA [r9_423_TrROS_Hall]")
2.29
>>> numericreadout("SAGGSAGGSAGGSLEAIRKAIEEAQKNGHTVPISVRHPNGKDFTFEIEIQVVKPPPDEKSAGGSAGGSAGGS [r10_573_TrROS]")
1.28
>>> numericreadout("SAGGSAGGSAGPVVVEVDGKLVIFNPEDGTVTVFEFDKDGKLVEEKEFTVPPEVTLVEEDSAGGSAGGSAGG [r17_385_TrROS_Hall]")
1.42
>>> numericreadout("SAGGSASLFIPVPPTDTSPVTVEITIGNSKYRATLTVDPNNPNLMTVTLTDPNGGATTTETVPLLDSAGGSA [r15_328_JUSTAS]")
1.8
>>> numericreadout("SAGGKKYKVIKEIEITLENGKKIKIKLIEYNEKTNEYILEITYPDGKKITITVPKGMSIEEALKKLLSSAGG [r13_470_TrROS_Hall]")
2.37
>>> numericreadout("SAGAAPGEPVVLVLPDGTVIPVIPRPDGSATLDAVAPSADGTYTVTASLPATGTTVTLELSAPPSFVAASAG [r5_394_TrMRF]")
1.43
>>> numericreadout("SAGGSAGGSPRVLEIRRYPLPDGGYLLEVRFEKETLFIPVPENVPPHSLEEIEIPLLLGEKPESAGGSAGGS [r12_673_TrMRF]")
1.49
>>> numericreadout("SKIRIEWPDETQEIKIPKDASVAIDPGNGHIAIHGPDGEALGFPLGPNWKIEPDDDEIEITIPPPKPEDPSA [r9_653_TrROS]")
-0.118

Sourced from the supplement of paper PMC12764529
